# assay info: NCI Yeast Anticancer Drug Screen. Data for the mec2-1 strain (AID 157)
# applied conditions: S. cerevisiae mec2-1 strain, at 100.0 µM, stronger effect = higher value
About 79,000 compounds went through this panel and 15% of them were active in at least one assay; those are over-represented in the sample as a whole.
# Lookup of reported growth inhibition keyed by entry
readout name: growth inhibition (%)

compound: COc1ccc([N+](=O)[O-])c2c(NCCCN(C)C)c3ccccc3nc12
readout name: growth inhibition
reported value: 85
//
compound: COc1ccc2c(c1)n([O-])c1ccccc1[n+]2=O
readout name: growth inhibition
reported value: 93
//
compound: O=[N+]([O-])c1cccc2nc3ccccc3c(NCCCn3ccnc3[N+](=O)[O-])c12
readout name: growth inhibition
reported value: 97
//
compound: CN(C)c1ccc2c(SCC(=O)OCC(=O)[C@@]3(O)CC[C@H]4[C@@H]5CCC6=CC(=O)C=C[C@]6(C)[C@H]5C(=O)C[C@@]43C)c3ccc(N(C)C)cc3nc2c1
readout name: growth inhibition
reported value: 90
//
compound: O=c1c2ccccc2nc(-c2ccccc2)n1O
readout name: growth inhibition
reported value: 97
//
compound: O=[N+]([O-])c1cc[n+]([O-])cc1
readout name: growth inhibition
reported value: 99
//
compound: CN(C)CCOC1(Cc2ccc(F)cc2)CCC(C(C)(C)C)CC1 (stereo unspecified)
readout name: growth inhibition
reported value: 98
//
compound: Cc1cc2c(cc1C)[n+]([O-])c(-c1nc3ccccc3s1)c(N)[n+]2[O-]
readout name: growth inhibition
reported value: 97
//
compound: COc1cccc2c1C(=O)c1c(O)c3c(c(O)c1C2=O)CC(O)(C(O)CO)CC3OC1CC(N2CCOCC2)C(O)C(C)O1 (stereo unspecified)
readout name: growth inhibition
reported value: 98
//
compound: CCn1c(O)c(C=Nc2ccccc2)s/c1=N/Nc1nc(-c2ccccc2)cs1
readout name: growth inhibition
reported value: 2
//
compound: COC(=O)Oc1cc(Cl)c(Cl)cc1Cl
readout name: growth inhibition
reported value: 8
//
compound: Cc1ccc(NC(=O)/C(CC2N=c3c(ccc4c(O)c5ccccc5c(O)c34)=NC2O)=N/NC(C)(C)C)cc1 (stereo unspecified)
readout name: growth inhibition
reported value: 35
//
compound: C[C@]12CC[C@H](O)CC1=CC[C@@H]1C2CC[C@]2(C)C(=O)NC(=O)CC12 (stereo partly specified)
readout name: growth inhibition
reported value: 83
//
compound: C/C=C/SC(=Nc1ccccc1)Nc1ccccc1
readout name: growth inhibition
reported value: 98
//
compound: c1ccc2cc(NCNc3ccc4ccccc4c3)ccc2c1
readout name: growth inhibition
reported value: 27
//
compound: C[C](C)(C)[Ge]([O][Ge]([c]1ccccc1)[c]1ccccc1)([O][Ge]([c]1ccccc1)[c]1ccccc1)[C](C)(C)C
readout name: growth inhibition
reported value: 79
//
compound: CCOC1Oc2ccccc2-c2nc(N)ncc21 (stereo unspecified)
readout name: growth inhibition
reported value: -15
//
compound: O=[N+]([O-])c1cc(Cl)cnc1Br
readout name: growth inhibition
reported value: 88
//
compound: CC(NCCN(C)C)C1CCC2C3CCc4cc(O)ccc4C3CCC12C (stereo unspecified)
readout name: growth inhibition
reported value: 97
//
compound: Cc1nc(-c2cc3cc([N+](=O)[O-])ccc3oc2=O)cs1
readout name: growth inhibition
reported value: 94
//
compound: O=C(/C=C\c1cccc(C(F)(F)F)c1)c1ccccc1
readout name: growth inhibition
reported value: -5

----------
# assay info: NCI Yeast Anticancer Drug Screen. Data for the rad50 strain (AID 155);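 note: 0% = growth of vehicle-only cultures of the same strain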
# applied conditions: S. cerevisiae rad50 strain growth inhibition; at 1.2 µM; stronger effect = higher value
# Experimental: Growth inhibition of yeast strains with defined genetic alterations is measured as a screen for potential anti-cancer activity. Selected strains with alterations in DNA damage repair or cell cycle control were exposed to compounds and growth inhibition was measured relative to vehicle treated controls. The strain used in this assay is rad50
The panel holds about 79,000 compounds, 15% with a hit somewhere; the sample as a whole holds those more often.
# growth inhibition >= -20% gives 1 (yes), anything below gives 0 (no)

compound: Cn1c(-c2ccc(/C=N\N3CCN(/N=C/c4ccc(-c5c[n+]6ccccc6n5C)cc4)CC3)cc2)c[n+]2ccccc12
group: 1 (yes)

compound: Cc1ccc(Cl)cc1NC(=O)OCCN(C)C(=O)Nc1cc(Cl)ccc1C
group: 0 (no)

compound: COC(=O)Nc1cn2ccc(C(Cl)=C(Cl)Cl)cc2n1
group: 0 (no)

compound: COc1cc(C2SCC(=O)N2c2ccc(-c3ccc(-n4c(-c5ccccc5)nc5ccccc5c4=O)cc3)cc2)ccc1O (centres undefined)
group: 1 (yes)

compound: CCOC(=O)c1[nH]cc(C)c1-c1cccn1-c1ccc(Cl)cc1[N+](=O)[O-]
group: 1 (yes)

compound: CCCCN(CCCC)C(=O)/C=C/c1ccccc1
group: 1 (yes)

compound: CN(C)c1ccc2c(SCC(=O)OCC(=O)[C@@]3(O)CC[C@H]4[C@@H]5CCC6=CC(=O)C=C[C@]6(C)[C@H]5C(=O)C[C@@]43C)c3ccc(N(C)C)cc3nc2c1
group: 0 (no)

compound: O=C1C=C(Cl)C(=O)N1c1cccc(Cl)c1
group: 1 (yes)

compound: CC(C)(C)CC(C)(C)c1cc(O)c(O)c(CN2CCCCC2)c1
group: 1 (yes)

----------
# assay info: NCI Yeast Anticancer Drug Screen. Data for the mec2-1 strain (AID 157)
# applied conditions: S. cerevisiae mec2-1 strain, at 1.2 µM, stronger effect = higher value
The panel holds about 79,000 compounds, 15% with a hit somewhere; the sample as a whole holds those more often.

compound: C#CCN(Cc1ccc2nc(N)[nH]c(=O)c2c1)c1ccc(C(=O)NC(CCC(=O)O)C(=O)O)cc1 (configuration not stated)
growth inhibition / %: -9

compound: CS(=O)(=O)SCc1ccc([N+](=O)[O-])cc1
growth inhibition / %: 3

compound: O=C1Nc2ccccc2/C1=C/c1ccccc1
growth inhibition / %: -3

compound: COc1ccc2c(c1)n([O-])c1ccccc1[n+]2=O
growth inhibition / %: 3

compound: COc1cc(O)c(O)c(C(C)(C)C)c1
growth inhibition / %: -3

compound: O=C(O)CCCC1CCCc2c1ccc1ccccc21 (configuration not stated)
growth inhibition / %: -2

compound: Nc1cc(N)c(N=Nc2cccc3c(S(=O)(=O)O)cccc23)cc1N=Nc1cc([N+](=O)[O-])ccc1O
growth inhibition / %: 1

compound: NC(=S)NC(=S)Nc1ccccc1
growth inhibition / %: -4

compound: CC(C)(C)C1=CC(=CC=C2C=CN(CCCCCCCCCCCO)C=C2)C=C(C(C)(C)C)C1=O
growth inhibition / %: -3

compound: O=C1Nc2ccc(Br)cc2C1=Nc1ccc2c(c1)OCO2
growth inhibition / %: -59

compound: O=C1c2cccnc2C(=O)C2C3C=CC(C3)C12 (configuration not stated)
growth inhibition / %: 19

compound: N=C1N=Nc2nc(C3(c4nc5n(c4O)C(=N)N=N5)Cc4ccccc4C3=O)c(O)n21 (configuration not stated)
growth inhibition / %: 2

compound: O=C1C=C(c2ccccc2)OC1(c1ccccc1)N1CCOCC1 (configuration not stated)
growth inhibition / %: -1

compound: CC(=O)OCC1OC2OC(=O)NC2C(OC(C)=O)C1OC(C)=O (configuration not stated)
growth inhibition / %: -2

compound: CN(C)c1ccc2c(SCC(=O)OCC(=O)[C@@]3(O)CC[C@H]4[C@@H]5CCC6=CC(=O)C=C[C@]6(C)[C@H]5C(=O)C[C@@]43C)c3ccc(N(C)C)cc3nc2c1
growth inhibition / %: -10

compound: CC1(C)CC(=O)C(/C=N/c2nc(-c3ccccc3)cs2)=C(O)C1
growth inhibition / %: 2

compound: COC(=O)/C=C(/CC(=O)OC)C(=O)OC
growth inhibition / %: -1

compound: c1ccc(CCN2CCc3ccccc3C2)cc1
growth inhibition / %: -3

compound: CC(=O)Nc1ccc(/C=C/[N+](=O)[O-])cc1
growth inhibition / %: -1

compound: CCCC(=O)Oc1c(C)cc([N+](=O)[O-])cc1[N+](=O)[O-]
growth inhibition / %: -1

compound: Cc1cccc2c1nc1ccc(Cl)cc1[n+]2C
growth inhibition / %: 1

compound: C[C@@](O)(/C=C/[C@H]1CC=CC(=O)O1)[C@@H](C[C@@H](O)\C=C/C=C\C=C\CO)OP(=O)(O)O
growth inhibition / %: 9

----------
Listing of entries alongside the reported growth inhibition.
# assay info: NCI Yeast Anticancer Drug Screen. Data for the rad18 strain (AID 177)
# applied conditions: S. cerevisiae rad18 mutant growth inhibition; at 3.7 µM; stronger effect = higher value
About 79,000 compounds went through this panel and 15% of them were active in at least one assay; those are over-represented in the sample as a whole. Activity calls are given as the source filed them. No stated cut-off is given here; in the data, active means growth inhibition above about 70%; inactive means the rest.
readout name: growth inhibition

compound: COc1ccc(C(=O)C(CN(C)C)CN(C)C)cc1
reported value: -8% (inactive)
--
compound: CCC(=O)c1cc(C(=O)C(=S)SC)cc(C(=O)C(=S)SC)c1
reported value: 49% (inactive)
--
compound: O=C(/C=C\c1cccc(C(F)(F)F)c1)c1ccccc1
reported value: 1% (inactive)
--
compound: CCN(CC)CCNc1ccc2ncn3c4cc(OC)c(OC)c(=O)c4c(O)c1c23
reported value: -1% (inactive)
--
compound: O=C(Nc1ccc(Cl)cc1)Nc1nnc2nc(C(C(=O)c3cccc([N+](=O)[O-])c3Cl)c3nc4nnc(NC(=O)Nc5ccc(Cl)cc5)n4[nH]c3=O)c(=O)[nH]n12
reported value: -3% (inactive)
--
compound: O=C1Nc2ccc(Br)cc2C1=Nc1ccc2c(c1)OCO2
reported value: -34% (inactive)
--
compound: CC(C)(C)CC(C)(C)c1cc(O)c(O)c(CN2CCCCC2)c1
reported value: 3% (inactive)
--
compound: O=C1NC(SSC2=NNC3(C(=O)N2)c2ccccc2-c2ccccc23)=NNC12c1ccccc1-c1ccccc12
reported value: 3% (inactive)
--
compound: N#CC(C#N)=NNc1ccc(S(=O)(=O)O)cc1
reported value: -6% (inactive)
--
compound: CCCCc1ccc(-n2c(C)c(COC(=O)NC)c(COC(=O)NC)c2C)cc1
reported value: -1% (inactive)
--
compound: O=C(O)c1ccc(N2C(=O)C=CC2=O)cc1
reported value: 3% (inactive)
--
compound: CN(C)/C=C/c1nnc([N+](=O)[O-])s1
reported value: 5% (inactive)
--
compound: COc1cc(O)c(O)c(C(C)(C)C)c1
reported value: 1% (inactive)
--
compound: CCCC(=O)Oc1c(C)cc([N+](=O)[O-])cc1[N+](=O)[O-]
reported value: 20% (inactive)
--
compound: O=[N+]([O-])c1cc[n+]([O-])cc1
reported value: 0% (inactive)
--
compound: Cc1ccc2c3ccc4c(c3n(C)c2c1)C(=O)C=CC4=O
reported value: 14% (inactive)
--
compound: COC(C(O)CO)C(O)C(O)C(=O)NNc1ccccc1 (stereo not drawn)
reported value: 49% (inactive)
--
compound: CCn1c(O)c(C=Nc2ccccc2)s/c1=N/Nc1nc(-c2ccccc2)cs1
reported value: -3% (inactive)
--
compound: Cc1cc(C(C)(C)CC(C)(C)C)ccc1O
reported value: -42% (inactive)
--
compound: Cc1cc(O)c(C(C)C)cc1C1(c2cc(C(C)C)c(O)cc2C)OC(=O)c2ccccc21
reported value: 4% (inactive)
--
compound: CC(=O)OCC(C)Cc1cc2c(cc1Br)OCO2 (stereo not drawn)
reported value: -8% (inactive)
--
compound: O=[N+]([O-])c1cccc2nc3ccccc3c(NCCC[N+]3([O-])CCCCC3)c12
reported value: 95% (active)
--
compound: Cn1c(=O)c2c(nc(N)n2C2OC(CO)C(O)C2O)n(C)c1=O (stereo not drawn)
reported value: 2% (inactive)
